- MEASURED_TARGET: cPLA2 (Homo sapiens, UniProt P47712)
- EXPERIMENT_DESCRIPTION: Coumarin Assay (cPLA2 inhibition)
- Type: biochemical
- MEASUREMENT_CONTEXT: CONCENTRATION 10 micromolar; read-out: PERCENT INHIBITION @
MEASUREMENT_NAME: inhibition at 10 µM (%)
One number for each entry, in %.

For orientation, consider the following solved cases.
COc1cc(C(=O)NS(=O)(=O)c2ccccc2C)ccc1Cc1cn(Cc2ccc3ccccc3c2)c2ccc(NC(=O)OC3CCCC3)cc12 ... 50
O=C(Nc1cccc(C(=O)O)c1)C(=O)c1cn(C(c2ccccc2)c2ccccc2)c2ccccc12 ... 50
COc1cc(C(=O)NS(=O)(=O)c2ccc(N3N=C(C)CC3=O)cc2)ccc1Cc1cn(C(c2ccccc2)c2ccccc2)c2ccc(NC(=O)OC3CCCC3)cc12 ... 23
COc1cc(C(=O)O)ccc1Cc1cn(C(c2ccccc2)c2ccccc2)c2ccc(NC(=O)OC3CCCC3)cc12 ... 41
COc1cc(C(=O)O)ccc1Cc1cn(C(c2ccccc2)c2ccccc2)c2ccc(NC(=O)C3CCCC3)cc12 ... 42
O=C(Cc1cn(Cc2ccc(Cc3ccccc3)cc2)c2ccc(OCc3ccccc3)cc12)Nc1cccc(C(=O)O)c1 ... 74

Consider now this further compound.
(Q) Fill in the blank: the reported inhibition at 10 µM of O=C(O)CN1C(=O)S/C(=C/c2cn(CCCOc3cccc(Cc4ccccc4)c3)c3ccccc23)C1=O [Example 82C] is ____.
(A) 50

* * *

- MEASURED_TARGET: cPLA2 (Homo sapiens)
- Sequence (P47712 1-749): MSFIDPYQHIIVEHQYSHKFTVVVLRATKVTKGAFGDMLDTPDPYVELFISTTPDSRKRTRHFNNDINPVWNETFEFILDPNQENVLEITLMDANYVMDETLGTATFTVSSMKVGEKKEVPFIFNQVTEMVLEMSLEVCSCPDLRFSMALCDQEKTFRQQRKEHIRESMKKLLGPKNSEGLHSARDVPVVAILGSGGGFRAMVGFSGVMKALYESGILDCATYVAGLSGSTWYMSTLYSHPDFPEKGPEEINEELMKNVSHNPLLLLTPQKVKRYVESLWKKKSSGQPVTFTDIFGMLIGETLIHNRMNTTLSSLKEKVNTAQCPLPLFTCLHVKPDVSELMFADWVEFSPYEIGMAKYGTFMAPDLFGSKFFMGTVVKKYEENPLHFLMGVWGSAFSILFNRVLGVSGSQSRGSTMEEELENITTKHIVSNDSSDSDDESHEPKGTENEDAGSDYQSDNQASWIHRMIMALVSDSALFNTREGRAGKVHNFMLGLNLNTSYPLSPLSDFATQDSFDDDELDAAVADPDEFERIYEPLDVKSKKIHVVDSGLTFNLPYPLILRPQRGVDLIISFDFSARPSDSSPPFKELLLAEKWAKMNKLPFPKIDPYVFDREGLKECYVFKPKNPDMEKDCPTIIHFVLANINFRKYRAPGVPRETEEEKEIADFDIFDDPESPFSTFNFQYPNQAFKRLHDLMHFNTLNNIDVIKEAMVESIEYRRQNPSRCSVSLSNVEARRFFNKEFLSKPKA
- EXPERIMENT_DESCRIPTION: Coumarin Assay (cPLA2 inhibition)
- Assay type: biochemical
- MEASUREMENT_CONTEXT: CONCENTRATION 0.8 micromolar; read-out: PERCENT INHIBITION @
- Text: Table I reports data for the compounds described in the examples above in cPLA2 inhibition assays (described below). In the data columns of Tables I and II, assay results are reported as a percent inhibition at the concentration specified. 7-hydroxycoumarinyl 6-heptenoate was used as a monomeric substrate for cPLA2 as reported previously (Huang, Z. et al., 1994, Nalytical Biochemistry 222, 110-115). […]
MEASUREMENT_NAME: inhibition at 0.8 µM (%)
Answers are plain numbers, in %.

For orientation, consider the following solved cases.
COc1cc(C(=O)NS(=O)(=O)C(F)(F)F)ccc1Cc1cn(C(c2ccccc2)c2ccccc2)c2ccc(Br)cc12 [Example 39] ... 50
COc1cc(C(=O)O)ccc1Cc1cn(C(c2ccccc2)c2ccccc2)c2ccc(C#N)cc12 [Example 17] ... 50
O=C(O)c1ccc(Cc2cn(C(c3ccccc3)c3ccccc3)c3ccc(Br)cc23)cc1 [Example 51] ... 50

Consider now this further compound.
(Q) Fill in the blank: the reported inhibition at 0.8 µM of O=C(O)C(=O)Nc1ccc(Cc2cn(C(c3ccccc3)c3ccccc3)c3cc(Cl)ccc23)cc1 [Example 125] is ____.
(A) 50

* * *

- MEASURED_TARGET: cPLA2 (Homo sapiens, UniProt P47712)
- EXPERIMENT_DESCRIPTION: Coumarin Assay (cPLA2 inhibition)
- Assay type: biochemical
- MEASUREMENT_CONTEXT: CONCENTRATION 20 micromolar; read-out: PERCENT INHIBITION @
Answer each item with its documented inhibition at 20 µM.
Answers are plain numbers, in %.

For orientation, consider the following solved cases.
Cc1ccccc1S(=O)(=O)NC(=O)c1cn(C(c2ccccc2)c2ccccc2)c2ccc(NC(=O)C3CCCC3)cc12 [Example 102] ... 31
COc1cc(C(=O)NS(=O)(=O)c2ccccc2C)ccc1Cc1cn(CC2CC2)c2ccc(NC(=O)OC3CCCC3)cc12 [Example 21] ... 50
O=C(Nc1ccc2c(c1)c(Cc1ccc(C(=O)O)cc1)cn2C(c1ccccc1)c1ccccc1)OC1CCCC1 [Example 52] ... 50

Please give inhibition at 20 µM, item by item, for the list that follows.
1. Cc1c(C(=O)Nc2cc(C(=O)O)cc(C(=O)O)c2)c2cc(OCc3ccccc3)ccc2n1Cc1ccc(C(F)(F)F)cc1C(F)(F)F [Example 108]
2. COc1cc(C(=O)O)ccc1Cc1cn(C(c2ccccc2)c2ccccc2)c2ccc(NC(=O)C3CCCC3)cc12 [Example 11]
3. COc1cc(C(=O)O)ccc1Cc1cn(C(c2ccccc2)c2ccccc2)c2ccc(NC(=O)OC3CCCC3)cc12 [Example 3]
4. COc1cc(C(=O)NS(=O)(=O)c2ccc(N3N=C(C)CC3=O)cc2)ccc1Cc1cn(C(c2ccccc2)c2ccccc2)c2ccc(NC(=O)OC3CCCC3)cc12 [Example 35]
5. COc1cc(C(=O)O)ccc1Cc1cn(C(c2ccccc2)c2ccccc2)c2ccc(NS(C)(=O)=O)cc12 [Example 10]
6. COc1cc(C(=O)NS(=O)(=O)c2ccccc2C)ccc1Cc1cn(Cc2ccc3ccccc3c2)c2ccc(NC(=O)OC3CCCC3)cc12 [Example 23]

(A)
1: 15; 2: 36; 3: 37; 4: 42; 5: 50; 6: 58

* * *

- Tested on: Rat Carrageenan-Induced Footpad Edema
- EXPERIMENT_DESCRIPTION: Rat Carrageenan-Induced Footpad Edema Test
- Format: in vivo, male Sprague Dawley rats
- MEASUREMENT_CONTEXT: Rattus norvegicus, iv, 3 h, IV, 5 mg/Kg; footpad volume 3 hours after carrageenan; read-out: PERCENT INHIBITION
MEASUREMENT_NAME: inhibition in vivo at 5 mg/kg (%)
One number for each entry, in %.

For orientation, consider the following solved cases.
COc1cc(C(=O)NS(=O)(=O)C(F)(F)F)ccc1Cc1cn(C(c2ccccc2)c2ccccc2)c2ccc(NC(=O)OCc3ccccc3)cc12 ... 18
COc1cc(C(=O)NS(=O)(=O)C(F)(F)F)ccc1Cc1cn(C(c2ccccc2)c2ccccc2)c2ccc(NC(=O)OC3CCCC3)cc12 ... 25.3
O=C(O)c1cccc(NCc2cn(C(c3ccccc3)c3ccccc3)c3ccc(NC(=O)C4CCCC4)cc23)c1 ... 2.84
CCCn1cc(Cc2ccc(C(=O)NS(=O)(=O)c3ccccc3C)cc2OC)c2cc(NC(=O)OC3CCCC3)ccc21 ... 15.9
COc1cc(C(=O)O)ccc1Cc1cn(C(c2ccccc2)c2ccccc2)c2ccc(NC(=O)C3CCCC3)cc12 ... 14
O=C(Nc1cccc(C(=O)O)c1)C(=O)c1cn(C(c2ccccc2)c2ccccc2)c2ccccc12 ... 18.3
O=C(O)CN1CCN(Cc2cn(C(c3ccccc3)c3ccccc3)c3ccc(NC(=O)C4CCCC4)cc23)CC1 ... 25.3
O=C(O)CC1C(=O)NCCN1Cc1cn(C(c2ccccc2)c2ccccc2)c2ccc(NC(=O)C3CCCC3)cc12 (stereo not drawn) ... 10.8
O=C(Cc1cn(Cc2ccc(Cc3ccccc3)cc2)c2ccc(OCc3ccccc3)cc12)Nc1cccc(C(=O)O)c1 ... 1.51
O=C(Nc1ccc2c(c1)c(CNC(CO)C(=O)O)cn2C(c1ccccc1)c1ccccc1)C1CCCC1 (stereo not drawn) ... -4.3

Please give inhibition in vivo at 5 mg/kg, item by item, for the list that follows.
1. COc1cc(C(=O)NS(=O)(=O)C(F)(F)F)ccc1Cc1cn(C(c2ccccc2)c2ccccc2)c2ccc(NC(=O)c3ccsc3)cc12
2. O=C(O)CCc1cn(C(c2ccccc2)c2ccccc2)c2ccc(NC(=O)C3CCCC3)cc12
3. O=C(O)c1ccc(CN2C(=O)S/C(=C/c3cn(CCCOc4cccc(Cc5ccccc5)c4)c4ccccc34)C2=O)cc1 [Example 82B]
4. Cc1ccc(S(=O)(=O)NC(=O)c2cccc(NC(=O)C(=O)c3cn(Cc4ccc(Cc5ccccc5)cc4)c4ccc(OCc5ccccc5)cc34)c2)cc1

(A)
[4.58, 6.15, 4.94, 14.8]

Please give inhibition in vivo at 5 mg/kg, item by item, for the list that follows.
1. COc1cc(C(N)=O)ccc1Cc1cn(C(c2ccccc2)c2ccccc2)c2ccc(NC(=O)OC3CCCC3)cc12
2. COc1cc(C(=O)NS(=O)(=O)c2ccccc2C)ccc1Cc1cn(C(C)C)c2ccc(NC(=O)OC3CCCC3)cc12
3. O=C(Nc1cccc(C(=O)O)c1)C(=O)c1cn(Cc2ccc(OCc3ccccc3)c(OCc3ccccc3)c2)c2ccccc12
4. COc1cc(C(=O)NS(=O)(=O)C(F)(F)F)ccc1Cc1cn(C(c2ccccc2)c2ccccc2)c2ccc(NC(=O)C3CCCC3)cc12
5. COc1cc(C(=O)NS(C)(=O)=O)ccc1Cc1cn(C(c2ccccc2)c2ccccc2)c2ccc(NC(=O)OC3CCCC3)cc12

(A)
[21.3, 8.33, 19.6, 8.21, 6.48]

Please give inhibition in vivo at 5 mg/kg, item by item, for the list that follows.
1. O=C(O)Cc1cn(Cc2ccccc2)c2ccc(-c3cc4ccccc4o3)cc12
2. COc1cc(C(=O)NS(=O)(=O)C(F)(F)F)ccc1Cc1cn(C(c2ccccc2)c2ccccc2)c2ccc(NS(=O)(=O)Cc3ccccc3)cc12
3. O=C(Nc1cccc(C(=O)O)c1)C(=O)c1cn(Cc2ccc(Cc3ccccc3)cc2)c2ccccc12
4. COc1cc(C(=O)NS(=O)(=O)C(F)(F)F)ccc1Cc1cn(C(c2ccccc2)c2ccccc2)c2ccc(NS(C)(=O)=O)cc12
5. COc1cc(C(=O)NS(=O)(=O)c2ccccc2Cl)ccc1Cc1cn(C(c2ccccc2)c2ccccc2)c2ccc(NC(=O)OC3CCCC3)cc12
6. CCCCNC(=O)Nc1ccc2c(c1)c(Cc1ccc(C(=O)O)cc1OC)cn2C(c1ccccc1)c1ccccc1
7. COc1cc(C(=O)O)ccc1Cc1cn(C(c2ccccc2)c2ccccc2)c2ccc(NS(C)(=O)=O)cc12
8. CS(=O)(=O)NC(=O)CCc1cn(C(c2ccccc2)c2ccccc2)c2ccc(NC(=O)C3CCCC3)cc12

(A)
1. 10.2
2. 10.2
3. 2.9
4. 10.1
5. 0.29
6. 4.46
7. 25.3
8. 7.13
